For each entry below, report its Selectivity Ki ratio α1β1/α2β3 value.
Biological target: human Na,K-ATPase α2β3FXYD1 (Homo sapiens (Human), UniProt P50993+P54709)
Assay: biochemical
Type: biochemical
// print number alone

For the molecule shown here, CC1CN(C[Si](C)(C)C)CCC(OC2C(O)CC(OC3C(O)CC(OC4CCC5(C)C(CCC6C5CC(O)C5(C)C(C7=CC(=O)OC7)CCC65O)C4)OC3C)OC2C)O1 (stereo not drawn) [DTMS] , give the reported Selectivity Ki ratio α1β1/α2β3.
6.5

Bench note: what Selectivity Ki ratio α1β1/α2β3 did CC1CN(Cc2ccccc2)CCC(O[C@@H]2[C@H](C)O[C@@H](O[C@@H]3[C@H](C)O[C@@H](O[C@H]4CC[C@@]5(C)C(CCC6C5C[C@H](O)[C@]5(C)[C@@H](C7=CC(=O)OC7)CC[C@]65O)C4)C[C@@H]3O)C[C@@H]2O)O1 (stereo partly drawn) [DBz] show?
10.3

Would you kindly share the measured Selectivity Ki ratio α1β1/α2β3 for CC1CN(CCS(C)(=O)=O)CCC(O[C@@H]2C(C)O[C@@H](OC3C(C)OC(O[C@H]4CC[C@@]5(C)C(CCC6C5CC(O)[C@]5(C)[C@@H](C7=CC(=O)OC7)CC[C@]65O)C4)C[C@@H]3O)C[C@@H]2O)O1 (stereo in doubt) [DESM] ?
18.8

* * *

What Ki was measured for each of the following?
Molecular target: human Na,K-ATPase α2β1FXYD1 (Homo sapiens, UniProt P50993)
Type: biochemical
Settings: read-out: Ki in nM ± SEM α2β1
Your answer should be a plain number; it is taken to be in nM.

# get_value(readout='Ki', item= CC1CN(CCS(N)(=O)=O)CCC(O[C@@H]2C(C)O[C@@H](OC3C(C)OC(O[C@H]4CC[C@@]5(C)C(CCC6C5CC(O)[C@]5(C)[C@@H](C7=CC(=O)OC7)CC[C@]65O)C4)C[C@@H]3O)C[C@@H]2O)O1 (stereo in doubt) [DESA] )
38.9

// returns reported Ki for input CC1CN(C2CC2)CCC(O[C@@H]2[C@H](C)O[C@@H](O[C@@H]3[C@H](C)O[C@@H](O[C@H]4CC[C@@]5(C)C(CCC6C5C[C@H](O)[C@]5(C)[C@@H](C7=CC(=O)OC7)CC[C@]65O)C4)C[C@@H]3O)C[C@@H]2O)O1 (stereo partly shown) [DcP]
14.6

Value lookup for Ki; key = CC1CN(CC2CC2)CCC(O[C@@H]2[C@H](C)O[C@@H](O[C@@H]3[C@H](C)O[C@@H](O[C@H]4CC[C@@]5(C)C(CCC6C5C[C@H](O)[C@]5(C)[C@@H](C7=CC(=O)OC7)CC[C@]65O)C4)C[C@@H]3O)C[C@@H]2O)O1 (stereo partly shown) [DMcP]
18.3

Quick one: Ki for CC(C)CN1CCC(O[C@@H]2[C@H](C)O[C@@H](O[C@@H]3[C@H](C)O[C@@H](O[C@H]4CC[C@@]5(C)C(CCC6C5C[C@H](O)[C@]5(C)[C@@H](C7=CC(=O)OC7)CC[C@]65O)C4)C[C@@H]3O)C[C@@H]2O)OC(C)C1 (stereo partly shown) [DiB] ?
20.6

* * *

Can you tell me Selectivity Ki ratio α1β1/α2β3 for the items I'm about to list?
Target: human Na,K-ATPase α2β3FXYD1 (Homo sapiens (Human), UniProt P50993+P54709)
Test: biochemical
Format: biochemical
No unit in the answer, please; the number alone is enough.

// query Selectivity Ki ratio α1β1/α2β3 value for entry CCN1CCC(O[C@@H]2[C@H](C)O[C@@H](O[C@@H]3[C@H](C)O[C@@H](O[C@H]4CC[C@@]5(C)C(CCC6C5C[C@H](O)[C@]5(C)[C@@H](C7=CC(=O)OC7)CC[C@]65O)C4)C[C@@H]3O)C[C@@H]2O)OC(C)C1 (some centres unmarked)
9.5

// lookup Selectivity Ki ratio α1β1/α2β3 for CC1CN(CC2CC(C)(C)C2)CCC(O[C@@H]2[C@H](C)O[C@@H](O[C@@H]3[C@H](C)O[C@@H](O[C@H]4CC[C@@]5(C)C(CCC6C5C[C@H](O)[C@]5(C)[C@@H](C7=CC(=O)OC7)CC[C@]65O)C4)C[C@@H]3O)C[C@@H]2O)O1 (some centres unmarked)
8.19
